assayed_system: rat adrenergic α1B receptor (Rattus norvegicus, UniProt P15823)
Construct: rat adrenergic α1B receptor obtained from Wistar Rat liver; from tissue; host or cells: Wistar rat liver
Sequence (P15823 1-515): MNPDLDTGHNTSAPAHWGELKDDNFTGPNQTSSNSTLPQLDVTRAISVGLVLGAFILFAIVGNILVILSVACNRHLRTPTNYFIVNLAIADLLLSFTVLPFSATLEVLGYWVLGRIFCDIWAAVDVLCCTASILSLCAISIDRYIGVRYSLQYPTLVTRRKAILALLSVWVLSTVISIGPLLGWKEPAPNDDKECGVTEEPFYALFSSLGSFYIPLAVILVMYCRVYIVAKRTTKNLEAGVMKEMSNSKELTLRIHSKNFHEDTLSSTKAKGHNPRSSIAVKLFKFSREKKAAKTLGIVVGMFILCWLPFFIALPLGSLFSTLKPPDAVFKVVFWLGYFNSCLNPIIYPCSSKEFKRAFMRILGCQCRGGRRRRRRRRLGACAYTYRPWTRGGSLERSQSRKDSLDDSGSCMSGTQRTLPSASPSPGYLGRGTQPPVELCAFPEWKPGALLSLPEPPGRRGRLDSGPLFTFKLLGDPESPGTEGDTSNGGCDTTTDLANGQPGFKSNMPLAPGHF
procedure_details: Radioligand binding, adrenergic α1B ([3H]Prazosin)
conditions_used: compound at 0.1 μM; [3H]Prazosin; repeat assays, each datapoint shown; read-out: Percentage inhibition of ligand binding, Adrenergic α1B
Protocol: To evaluate in radioligand binding assays the activity of compounds of the invention, rat adrenergic α1B receptor obtained from Wistar Rat liver (Garcia-S'ainz, J. et al, Biochem. Biophys. Res. Commun. 186:760, 1992; Michel, A. et al, Br. J. Pharmacol. 98:883, 1989) in a modified Tris-HCl buffer (50 mM Tris-HCl buffer, pH 7.4, 0.5 mM EDTA) was used. […] Receptor proteins were filtered and washed, the filters were then counted to determine [^3H]Prazosin specifically bound. […]
# cutoff 20% applies to inhibition at 0.1 µM; >= gives true (1), < gives false (0)

Please review the following examples before continuing.
CCOC(=O)N1CCc2c(c3cc(C)ccc3n2CC(O)c2ccncc2)C1 (stereo not drawn) :: false (0)
Cc1ccc2c(c1)c1c(n2CCc2cccnc2)CCN(C)C1 :: true (1)

**Query** Quick check, inhibition at 0.1 µM >= 20%? CCC(O)(Cn1c2c(c3cc(C)ccc31)CN(C)CC2)c1ccncc1 (stereo not drawn) [35a]
**Result** false (0)

**Query** Given Cc1cccc2c3c(n(CC(O)c4ccncc4)c12)CCN(C)C3 (stereo not drawn) , state whether its inhibition at 0.1 µM is at least 20%.
**Result** false (0)

**Query** Please indicate if the recorded inhibition at 0.1 µM for Cc1ccc2c(c1)c1c(n2CCc2ccc(CO)nc2)CCN(C)C1 meets or exceeds 20%.
**Result** true (1)

* * *

assayed_system: human recombinant adrenergic α2A receptor (Homo sapiens)
Sequence (P08913 whole entry): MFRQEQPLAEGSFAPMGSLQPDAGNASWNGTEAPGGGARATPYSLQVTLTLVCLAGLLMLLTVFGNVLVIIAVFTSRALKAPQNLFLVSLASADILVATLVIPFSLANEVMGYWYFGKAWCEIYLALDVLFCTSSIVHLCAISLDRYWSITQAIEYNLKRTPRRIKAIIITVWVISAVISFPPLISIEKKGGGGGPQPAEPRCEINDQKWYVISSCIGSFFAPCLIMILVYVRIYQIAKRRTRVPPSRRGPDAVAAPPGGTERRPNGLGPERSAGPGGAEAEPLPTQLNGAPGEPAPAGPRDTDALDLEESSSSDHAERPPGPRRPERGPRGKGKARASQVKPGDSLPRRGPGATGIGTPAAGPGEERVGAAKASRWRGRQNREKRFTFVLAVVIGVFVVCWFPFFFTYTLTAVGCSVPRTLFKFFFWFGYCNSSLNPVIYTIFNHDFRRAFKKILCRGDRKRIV
procedure_details: Radioligand binding, adrenergic α2A ([3H]MK-912)
Procedure: To evaluate in radioligand binding assays the activity of compounds of the invention, human recombinant adrenergic α2A receptor expressed in insect Sf9 cells (Uhlen, S. et al, J. Pharmacol. Exp. Ther. 271:1558, 1994) in a modified Tris-HCl buffer (50 mM Tris-HCl, pH 7.4, 12.5 mM MgCl2, 2 mM EDTA) was used. […] Receptor proteins were filtered and washed, the filters were then counted to determine [^3H]MK-912 specifically bound. […]
measured_attribute: Ki (nM)
// note: answer is a bare numeric in nM

// solved cases for Ki follow
CN1CCc2c(c3cc(Cl)ccc3n2CC(C)(O)c2cccnc2)C1 (single isomer, unassigned) [31a] :: 167
Cc1ccc2c(c1)c1c(n2C2=C(c3ccc(C)s3)CCC2)CCN(C)C1 :: 12.8
Cc1cnc2c(c1)c1c(n2CCc2ccc(C)nc2)CCN2CCCC12 (single isomer, unassigned) [74a] :: 234
Cc1ccc2c(c1)c1c(n2CC(O)c2ccncc2)CCNC1 (single isomer, unassigned) [39a] :: 1660
Cc1ccc2c(c1)c1c(n2CC(OC(=O)C(C)(C)C)c2ccncc2)CCN(C)C1 (single isomer, unassigned) [130a] :: 6.91
Cc1ccc2c(c1)c1c(n2CC(O)c2ccncc2)CCN2CCCC12 (single isomer, unassigned) [129c] :: 88.6
Cc1ccc2c(c1)c1c(n2CNc2ccccn2)CCN(C)C1 :: 65.8
Cc1ccc2c(c1)c1c(n2CC(O)c2ccncc2)CCN(C)CC1 (single isomer, unassigned) [13b] :: 199

**Query** Fill blank: measured Ki of the molecule C/C(=C\n1c2c(c3cc(C)ccc31)CN(C)CC2)c1ccc(Cl)c(Cl)c1 is ____.
**Result** 3.86

**Query** Give the measured Ki of C/C(=C\n1c2c(c3cc(C)ccc31)CN(C)CC2)c1cnc(N(C)C)nc1 .
**Result** 17.9

**Query** Endpoint output: Ki of Cc1ccc2c(c1)c1c(n2CC(OC(=O)C(C)(C)C)c2ccncc2)CCN(C)C1 (single isomer, unassigned) [130b] . Value?
**Result** 72.6

**Query** What value of Ki has been recorded for this entry: CN1CCc2c(n(CC(O)c3ccncc3)c3ccc(Cl)cc23)CC1 (single isomer, unassigned) [15b]
**Result** 112

* * *

assayed_system: human recombinant adrenergic α2B receptor (Homo sapiens)
Construct: expressed in transfected cells; host or cells: CHO-K1
procedure_details: Radioligand binding, adrenergic α2B ([3H]Rauwolscine)
conditions_used: 0.03 μM compound; 0.03 µM
measured_attribute: Percentage inhibition of ligand binding, Adrenergic α2B (%)
Unit % implied. Number only.

Please review the entries below; each comes with its answer.
Cc1ccc2c(c1)c1c(n2CC(N)c2ccc(F)cc2)CCN(C)C1 (centres unmarked) [II-11] :: 70
Cc1ccc2c(c1)c1c(n2CC(C)(OC(=O)C(C)(C)C)c2cccnc2)CCN(C)C1 (single isomer, unassigned) [II-16b] :: 73
CNC(Cn1c2c(c3cc(C)ccc31)CN(C)CC2)c1ccc(F)cc1 (centres unmarked) [II-12] :: 65
OCCN1CCc2c(c3cc(Cl)ccc3n2CC(O)c2cccnc2)C1 (single isomer, unassigned) [II-94a] :: 8
CNC(Cn1c2c(c3cc(C)ccc31)CN(C)CC2)c1ccc(F)cc1 (single isomer, unassigned) [II-12a] :: 89
Cc1ccc2c(c1)c1c(n2CC(N)c2ccc(F)cc2)CCN(C)C1 (single isomer, unassigned) [II-11b] :: 89

**Query** Suppose we examine the compound Cc1ccc2c(c1)c1c(n2CC(O)c2ccccc2F)CN(C)CC1 (single isomer, unassigned) [II-49b] ; what Percentage inhibition of ligand binding, Adrenergic α2B value has been reported?
**Result** 50

**Query** Recorded Percentage inhibition of ligand binding, Adrenergic α2B of Cc1ccc2c(c1)c1c(n2C(C)C(O)c2ccccc2)CCN(C)C1 (single isomer, unassigned) [II-95a] , please.
**Result** 53

* * *

assayed_system: human recombinant adrenergic α2B receptor (Homo sapiens)
Construct: expressed in transfected cells; host or cells: CHO-K1
Sequence (P18089 1-450): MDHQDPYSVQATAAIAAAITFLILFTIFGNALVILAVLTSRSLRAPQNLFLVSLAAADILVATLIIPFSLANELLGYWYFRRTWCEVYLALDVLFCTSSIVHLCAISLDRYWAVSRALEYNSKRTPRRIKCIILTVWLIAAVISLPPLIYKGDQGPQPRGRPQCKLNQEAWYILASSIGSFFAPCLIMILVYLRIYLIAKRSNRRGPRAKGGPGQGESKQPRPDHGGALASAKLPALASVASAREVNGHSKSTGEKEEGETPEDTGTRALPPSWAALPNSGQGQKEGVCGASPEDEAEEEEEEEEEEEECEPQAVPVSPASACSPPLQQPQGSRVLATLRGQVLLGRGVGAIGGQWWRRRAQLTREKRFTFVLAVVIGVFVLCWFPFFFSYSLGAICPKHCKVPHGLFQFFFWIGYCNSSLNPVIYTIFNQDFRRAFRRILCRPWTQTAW
procedure_details: Radioligand binding, adrenergic α2B ([3H]Rauwolscine)
conditions_used: 0.1 μM compound; read-out: Percentage inhibition of ligand binding, Adrenergic α2B
In this section we review reported inhibition at 0.1 µM values for a set of molecules.
State the answer as a number, implicitly in %.

Some molecules with recorded inhibition at 0.1 µM:
C/C(=C\n1c2c(c3cc(C)ccc31)CN(C)CC2)c1ccc(C(F)(F)F)nc1 :: 99
Cc1ccc2c(c1)c1c(n2C2=C(c3cc4ccccc4s3)CCC2)CCN(C)C1 :: 79
C/C(=C\n1c2c(c3cc(C)ccc31)CCN(C)CC2)c1cccnc1 :: 96
COc1ccc(/C(C)=C/n2c3c(c4cc(C)ccc42)CCN(C)CC3)cc1 :: 101
Cc1ccc2c(c1)c1c(n2CCc2ccc(C(F)(F)F)nc2)C(C)(C)CN(C)C1 :: 36

**Query** Could you share what inhibition at 0.1 µM was measured for C/C(=C/n1c2c(c3cc(Cl)ccc31)CN(C)CC2)c1cc(F)c(F)cc1Cl , tested on human recombinant adrenergic α2B receptor (Homo sapiens)?
**Result** 52

**Query** Item C/C(=C\n1c2c(c3cc(C)ccc31)CN(C)CC2(C)C)c1ccncc1 with human recombinant adrenergic α2B receptor (Homo sapiens) - inhibition at 0.1 µM?
**Result** 34

**Query** What inhibition at 0.1 µM appears in the records for this molecule with human recombinant adrenergic α2B receptor (Homo sapiens)? C/C(=C\n1c2c(c3cc(C)ccc31)CN(C)CC2)c1ccccn1
**Result** 98

**Query** Test system human recombinant adrenergic α2B receptor (Homo sapiens); read-out inhibition at 0.1 µM; what value for Cc1ccc2c(c1)c1c(n2CCc2cscc2C)CCN(C)C1 ?
**Result** 103

**Query** Find inhibition at 0.1 µM (human recombinant adrenergic α2B receptor (Homo sapiens)) for the entry Cc1ccc2c(c1)c1c(n2CC(C)c2ccc(F)cc2)CCN(C)C1 (single isomer, unassigned) [288a]
**Result** 104

**Query** Recall the recorded inhibition at 0.1 µM for C/C(=C\n1c2c(c3cc(Cl)ccc31)CCN(C)CC2)c1cccnc1 with human recombinant adrenergic α2B receptor (Homo sapiens) and state it.
**Result** 99

**Query** Item: Cc1ccc2c(c1)c1c(n2CCc2cccc(C)n2)CCN(C)C1 Test system: human recombinant adrenergic α2B receptor (Homo sapiens) Read-out: inhibition at 0.1 µM Value: ?
**Result** 46

**Query** Under human recombinant adrenergic α2B receptor (Homo sapiens): inhibition at 0.1 µM value of Cc1ccc2c(c1)c1c(n2CCc2csc3ccccc23)CCN(C)C1 ?
**Result** 41

**Query** Item: Cc1ccc2c(c1)c1c(n2C#Cc2cccc3cnccc23)CCN(C)C1 Test system: human recombinant adrenergic α2B receptor (Homo sapiens) Read-out: inhibition at 0.1 µM Value: ?
**Result** 73

**Query** Notebook: pull reported inhibition at 0.1 µM for human recombinant adrenergic α2B receptor (Homo sapiens), entry C/C(=C/n1c2c(c3cc(C)ccc31)CN(C)CC2)c1ccnn1C
**Result** 89
